target: MycN protein (Homo sapiens); construct: either 2×10^6 of L-363 (human leukemia cell line) or SKNBE2 (neuroblastoma cell line) cells; endogenous in cells; host or cells: SKNBE2 / SK-N-BE(2) neuroblastoma cells; experiment: Degradation of MycN protein, Western blot, SKNBE2 cells (Example 160); type: cell-based; conditions: SKNBE2, 6 h
Sequence (P04198 whole entry): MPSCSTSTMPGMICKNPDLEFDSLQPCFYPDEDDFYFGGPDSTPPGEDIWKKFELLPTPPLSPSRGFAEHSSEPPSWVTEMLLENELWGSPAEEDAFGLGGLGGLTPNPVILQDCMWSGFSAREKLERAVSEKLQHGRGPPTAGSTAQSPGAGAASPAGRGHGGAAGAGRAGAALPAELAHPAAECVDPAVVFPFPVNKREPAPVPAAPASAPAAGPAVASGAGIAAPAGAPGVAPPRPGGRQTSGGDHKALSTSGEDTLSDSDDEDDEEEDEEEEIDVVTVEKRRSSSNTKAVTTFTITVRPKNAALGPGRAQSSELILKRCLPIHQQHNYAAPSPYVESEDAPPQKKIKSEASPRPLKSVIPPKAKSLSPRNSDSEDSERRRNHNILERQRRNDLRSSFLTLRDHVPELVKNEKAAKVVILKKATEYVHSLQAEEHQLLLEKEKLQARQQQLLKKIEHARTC
READOUT_TYPE: inhibition at 2 µM

CN(c1nccc(Nc2cc(C3CC3)[nH]n2)n1)[C@H]1CC[C@H](NC(=O)Cc2cccc(C#N)c2)CC1 ... 50 to 79%
CN(c1nccc(Nc2cc(C3CC3)[nH]n2)n1)[C@H]1CC[C@H](NC(=O)N2CCc3cc(F)c(F)cc3C2)CC1 ... 50 to 79%
CN(c1nccc(Nc2cc(C3CC3)[nH]n2)n1)[C@H]1CC[C@H](NC(=O)C2(C)CCOCC2)CC1 ... < 20%
CN(c1nccc(Nc2cc(C3CC3)[nH]n2)n1)[C@H]1CC[C@H](NC(=O)N2Cc3ccccc3C2)CC1 ... 50 to 79%

Source: patent US20230322722A1
